The values you see were collected from patent US20260258084A1.

assayNotes: Chemical stability assessment of peptides (relative purity loss)
Assay type: physicochemical
condition: 50 mM phosphate buffer pH 6.5 + acetonitrile (1:1); 24 hours at 37° C.
Positions of bridges follow the written chain, without caps; N, C: chain ends. Non-standard residues stand in square brackets, D forms with d. Residues, ends and D or L forms follow the SMILES beside them. *: point of attachment. Trp(7-Me) = Cc1cccc2c(C[C@H](N)C(=O)O)c[nH]c12; 2Nal = N[C@@H](Cc1ccc2ccccc2c1)C(=O)O; Thp = NC1(C(=O)O)CCOCC1; Me2NCH2CH2 = CN(C)CC*; Aib = CC(C)(N)C(=O)O; Ava = NCCCCC(=O)O; βAla = NCCC(=O)O; Sar = CNCC(=O)O
Overview of recorded Chemical stability (relative purity loss) Buffer pH 6.5 for various compounds
observationType: Chemical stability (relative purity loss) Buffer pH 6.5 (%)

compound	unitInfo	val
CC(=O)NCCCC[C@@H]1NC(=O)[C@H](Cc2c[nH]c3c(C)cccc23)NC(=O)[C@H]([C@@H](C)O)NC(=O)[C@H](CC(N)=O)NC(=O)[C@@H]2CSSC[C@H](NC1=O)C(=O)N[C@@H](Cc1ccc(OCCN(C)C)cc1)C(=O)N[C@@H](Cc1ccc3ccccc3c1)C(=O)NC(C)(C)C(=O)N[C@H](C(=O)N[C@@H](CC(N)=O)C(=O)N[C@@H](Cc1c[nH]cn1)C(=O)N(C)CC(N)=O)CCC(=O)NCCCCC(=O)N2 [compound 45] ([Ava]CNT[Trp(7-Me)]K(Ac)CY(Me2NCH2CH2)[2Nal][Aib]ENH[Sar]-NH2; disulfide 2-7; lactam N-11)	%	0.0
CC(=O)NCCCC[C@@H]1NC(=O)[C@H](Cc2c[nH]c3c(C)cccc23)NC(=O)[C@H]([C@@H](C)O)NC(=O)[C@H](CC(N)=O)NC(=O)[C@@H]2CSSC[C@H](NC1=O)C(=O)N[C@@H](Cc1ccc(OCCN(C)C)cc1)C(=O)N[C@@H](Cc1ccc3ccccc3c1)C(=O)NC1(CCOCC1)C(=O)N[C@H](C(=O)N[C@@H](CC(N)=O)C(=O)N[C@@H](Cc1c[nH]cn1)C(=O)NCCC(N)=O)CCC(=O)NCCCCC(=O)N2 [compound 49] ([Ava]CNT[Trp(7-Me)]K(Ac)CY(Me2NCH2CH2)[2Nal][Thp]ENH[βAla]-NH2; disulfide 2-7; lactam N-11)	%	1.2
